Entry source: PubChem BioAssay (NCI)

- test-name: NCI Yeast Anticancer Drug Screen. Data for the cln2 rad14 strain (AID 165);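 note: 0% = growth equal to vehicle treated cultures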
- settings: S. cerevisiae cln2 rad14 strain, at 50.0 µM (retest, dose inferred, filed as 5.0), hits give high values
This is part of a sample that, as a whole, favours compounds with a hit. Of some 79,000 tested, about 15% had one in any assay.
Reported growth inhibition values for a set of molecules
Could you give me the number in %? Just the number is fine.

>  <molecule>
CCC(=O)OCC(=O)c1ccc(-c2ccccc2)cc1

>  <units>
%

>  <growth inhibition>
-56

$$$$
>  <molecule>
S=C1Nc2cnc3ccccc3c2SC1c1ccccc1 (stereo unspecified)

>  <units>
%

>  <growth inhibition>
98

$$$$
>  <molecule>
CC(C)(CCBr)[N+](=O)[O-]

>  <units>
%

>  <growth inhibition>
-68

$$$$
>  <molecule>
CN(C)C(=O)SC1=C(c2c(Cl)cccc2Cl)C(=O)c2ccccc21

>  <units>
%

>  <growth inhibition>
61

$$$$
>  <molecule>
CSC(=S)NN=C1CCCCC1

>  <units>
%

>  <growth inhibition>
78

$$$$
>  <molecule>
O=C1Nc2ccccc2/C1=N\N=c1/scc(-c2ccccc2)n1-c1ccccc1

>  <units>
%

>  <growth inhibition>
90

$$$$

Request: Fill in: growth inhibition of `COc1ccc(NC(=O)CCC(=O)CC(=O)c2ccncc2)cc1` is ___
Response: 2

Request: Fill in: growth inhibition of `CCC(CC)(C(=O)Nc1ccc2c(c1)c(=O)c1ccccc1n2C)C(=O)Nc1ccc2c(c1)c(=O)c1ccccc1n2C` is ___
Response: 75

Request: Fill in: growth inhibition of `Cc1cc(N(CCOS(C)(=O)=O)CCOS(C)(=O)=O)ccc1C=Nc1ccc(-c2csc(-c3ccc(Cl)cc3)n2)cc1` is ___
Response: 93

Request: Fill in: growth inhibition of `CC(=O)Nc1ccc2c(c1)/C(=N/O)c1ccccc1-2` is ___
Response: 56

Request: Fill in: growth inhibition of CCCCCCC(O)C(CO)CCCCC (stereo unspecified) is ___
Response: 97

* * *

- test-name: NCI Yeast Anticancer Drug Screen. Data for the cln2 rad14 strain (AID 165);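 note: 0% = growth equal to vehicle treated cultures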
- settings: S. cerevisiae cln2 rad14 strain, at 5.0 µM (retest, dose inferred, filed as 0.5), hits give high values
This is part of a sample that, as a whole, favours compounds with a hit. Of some 79,000 tested, about 15% had one in any assay.
Reported growth inhibition values for a set of compounds
Could you give me the number in %? Just the number is fine.

Some solved cases for reference:
>  <compound>
N#CC1C=C(Cl)c2ccc(Cl)cc2N1C(=O)c1ccccc1 (stereo not drawn)

>  <growth inhibition / %>
2

$$$$
>  <compound>
S=C1Nc2cnc3ccccc3c2SC1c1ccccc1 (stereo not drawn)

>  <growth inhibition / %>
-9

$$$$
>  <compound>
CCOC(=O)CC(NC(=O)c1[nH]cnc1/N=N/N(C)C)C(=O)OCC (stereo not drawn)

>  <growth inhibition / %>
-11

$$$$

Request: Fill in: growth inhibition of `c1cc[c]([Sn]([NH]c2ncnc3[nH]cnc23)([NH]c2ncnc3[nH]cnc23)[c]2ccccc2)cc1` is ___
Response: -2

Request: Fill in: growth inhibition of `c1ccc(N=C2c3ccsc3C(=Nc3ccccc3)c3ccsc32)cc1` is ___
Response: 5

Request: Fill in: growth inhibition of `CCN(CC)CCOc1ccc(/C=C/c2ccccc2)cc1` is ___
Response: -5

Request: Fill in: growth inhibition of `CC1=NC(=Cc2ccc(Cl)cc2)C(=O)N1n1c(-c2ccccc2)nc2ccccc2c1=O` is ___
Response: -24

Request: Fill in: growth inhibition of CC(C)(CN1CCCCC1)C(=O)CC(SCCS(=O)(=O)O)c1ccc(Cl)cc1 (stereo not drawn) is ___
Response: -1

* * *

- test-name: NCI Yeast Anticancer Drug Screen. Data for the cln2 rad14 strain (AID 165);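 note: 0% = growth equal to vehicle treated cultures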
- settings: S. cerevisiae cln2 rad14 strain, at 50.0 µM, hits give high values
The panel holds about 79,000 compounds, 15% with a hit somewhere; the sample as a whole holds those more often.
Binary classification by growth inhibition, with 50% as an inclusive lower bound for Fulfilled; all other cases are Not fulfilled.

Worked set:
>  <molecule>
CC(NNC(=S)N(C)C1CCCCC1)c1cc2ccccc2cn1 (configuration not stated)

>  <discrete-label>
Fulfilled

$$$$
>  <molecule>
Cc1nc(N)sc1N=Nc1cccc(Cl)c1Cl

>  <discrete-label>
Fulfilled

$$$$
>  <molecule>
C[C@]12CCC3[C@@H](CC[C@@H]4c5nonc5CC[C@]34C)C1CCC(=O)N2 (some centres not stated)

>  <discrete-label>
Not fulfilled

$$$$
>  <molecule>
CCCCn1cnc2c(SCc3ccc(F)cc3)nc(N)nc21

>  <discrete-label>
Not fulfilled

$$$$
>  <molecule>
O=[N+]([O-])OC1CCCC(O[N+](=O)[O-])c2c1n([O-])c1ccccc1[n+]2=O (configuration not stated)

>  <discrete-label>
Not fulfilled

$$$$

Request: Does the reported growth inhibition for `O=C(Nc1ccc(S(=O)(=O)NC2CCCCC2)cc1)OCc1ccccc1` fall at or above the 50% mark?
Response: Not fulfilled

Request: Does the reported growth inhibition for `O=C1C=CC(=O)c2c(O)c(N3CCC[C@H]3CO)c(Cl)c(O)c21` fall at or above the 50% mark?
Response: Not fulfilled

Request: Does the reported growth inhibition for `Cc1ccc(S(=O)(=O)Nc2ccccc2Cl)cc1` fall at or above the 50% mark?
Response: Fulfilled

Request: Does the reported growth inhibition for Clc1ccc(CN2CCCN(Cc3ccc(Cl)cc3)C2C2CCC=CO2)cc1 (configuration not stated) fall at or above the 50% mark?
Response: Not fulfilled

Request: Does the reported growth inhibition for `CCOc1cc(/C=N/NC(=S)NC23CC4CC(CC(C4)C2)C3)ccc1O` fall at or above the 50% mark?
Response: Not fulfilled

Request: Does the reported growth inhibition for COc1cc(C(c2cc3c(cc2O)OCO3)N2CCOCC2)cc(OC)c1OC (configuration not stated) fall at or above the 50% mark?
Response: Not fulfilled

Request: Does the reported growth inhibition for `O=C1CCC(=O)c2c1c(O)c1ccncc1c2O` fall at or above the 50% mark?
Response: Fulfilled

Request: Does the reported growth inhibition for CCS(CC)(CC)CC1CCCC2=CCC(P(=O)(c3ccccc3)c3ccccc3)CC21 (configuration not stated) fall at or above the 50% mark?
Response: Not fulfilled

Request: Does the reported growth inhibition for `CCCCCCn1c(SCC)c2ccccc2c1-c1nc(F)nc(F)n1` fall at or above the 50% mark?
Response: Fulfilled

Request: Does the reported growth inhibition for CCCCCCCNc1ccc2c(cc1=O)C(NC(C)=O)CCc1cc(OC)c(OC)c(OC)c1-2 (configuration not stated) fall at or above the 50% mark?
Response: Not fulfilled

Request: Does the reported growth inhibition for COc1ccc(C2CC(CO)ON2c2ccccc2)cc1 (configuration not stated) fall at or above the 50% mark?
Response: Fulfilled

Request: Does the reported growth inhibition for `Cc1c(C)n(-c2ccccc2)c2nc(S(C)(=O)=O)nc(S(C)(=O)=O)c12` fall at or above the 50% mark?
Response: Fulfilled

* * *

- test-name: NCI Yeast Anticancer Drug Screen. Data for the bub3 strain (AID 167)
- settings: S. cerevisiae bub3 mutant strain, at 50.0 µM
This is part of a sample that, as a whole, favours compounds with a hit. Of some 79,000 tested, about 15% had one in any assay. Activity calls are given as the source filed them. Cut-off read from the data, not from the text of the source: active = growth inhibition above about 70%; inactive = the rest.
Write down one outcome, taken from 1 (active), -1 (inactive)

Worked set:
>  <compound>
CCC[CH2][Sn]([CH2]CCC)([O]C(=O)c1cccc(F)c1)[O]C(=O)c1cccc(F)c1

>  <discrete-label>
-1

$$$$
>  <compound>
CC1CCN(CCC(=O)c2cccc(O)c2)CC1

>  <discrete-label>
-1

$$$$
>  <compound>
Cc1ccc(O)c(Cc2ccccc2Cl)c1

>  <discrete-label>
1

$$$$
>  <compound>
O=C(O)c1c(Cl)c(Cl)c(Cl)c(Cl)c1-c1c2cc(I)c(=O)c(I)c-2oc2c(I)c(O)c(I)cc12

>  <discrete-label>
1

$$$$

Request: For `S=C(N/N=C/c1ccccn1)Nc1ccccn1` , what call appears in the results of this test?
Response: 1

Request: For `COC(OC)(c1ccccc1)C(I)I` , what call appears in the results of this test?
Response: 1

Request: For CCOP(=O)(C=C=C1CCC2[C@@H]3CCc4cc(OC)ccc4C3CC[C@]12C)OCC (stereo partly drawn) , what call appears in the results of this test?
Response: 1

Request: For `N#C/C=C(\c1ccccc1)c1c[nH]c2ccccc12` , what call appears in the results of this test?
Response: 1

* * *

- test-name: NCI Yeast Anticancer Drug Screen. Data for the bub3 strain (AID 167)
- settings: S. cerevisiae bub3 mutant strain, at 50.0 µM (retest, dose inferred, filed as 5.0)
The panel holds about 79,000 compounds, 15% with a hit somewhere; the sample as a whole holds those more often. Calls of active or inactive are those of the source. Rule as the data show it: active = growth inhibition above about 70%; inactive = the rest. Where a SMILES comes first, the peptide text is derived from it. The star is where a group is joined. Trt = c1ccc(C(c2ccccc2)(c2ccccc2)*)cc1; Cbz = O=C(OCc1ccccc1)*
Write down one outcome, taken from active, inactive

Worked set:
>  <compound>
COC1(OC)CNC(C(=O)O)C1 (stereo unspecified)

>  <discrete-label>
inactive

$$$$
>  <compound>
CC(C)=Cc1cc2c(cc1O)CCC1C2CC[C@@]2(C)C1CC[C@@H]2O (stereo partly specified)

>  <discrete-label>
inactive

$$$$
>  <compound>
O=C(O)[C@@H]1CCCC[C@@H]1C(=O)N(C1CCCCC1)C1CCCCC1

>  <discrete-label>
active

$$$$
>  <compound>
COC(=O)c1ccc(/C=C/C2=CC(=O)C=CC2=O)cc1

>  <discrete-label>
inactive

$$$$
>  <compound>
Oc1c(Br)cc(Cl)cc1C(c1cc(Cl)cc(Br)c1O)C(Cl)(Cl)Cl

>  <discrete-label>
active

$$$$

Request: For `C/C(=N/O)c1cc([N+](=O)[O-])c(O)cc1O` , what call appears in the results of this test?
Response: active

Request: For C#CC(NCCC(C)CC(C)(C)C)C(C)C (stereo unspecified) , what call appears in the results of this test?
Response: inactive

Request: For COC(=O)C(CSC(c1ccccc1)(c1ccccc1)c1ccccc1)NC(=O)C(CC(N)=O)NC(=O)OCc1ccccc1 (stereo not drawn) (Cbz-Asn-Cys(Trt)-OMe; configuration not given here) , what call appears in the results of this test?
Response: active
